Reference source for all entries: ChEMBL document CHEMBL3286267

test: Plasma concentration in Sprague-Dawley rat at 30 mg/kg/day, po measured after 3 hrs on day 1; type: ADME, organism-based; set-up: route oral
valueKind: concentration at 3 h (µM)

chemicalSmiles: CC(C)(O)c1ccc(-c2nc(-c3ccc(F)cc3)oc2Sc2ccc(Cl)cn2)cn1
valueKind: concentration at 3 h
recordedValue: 5.4

====

assay: Plasma concentration in Sprague-Dawley rat at 30 mg/kg/day, po measured after 3 hrs on day 10; format: ADME, organism-based; design: route oral

chemicalSmiles: CC(C)(O)c1ccc(-c2nc(-c3ccc(F)cc3)oc2Sc2ccc(Cl)cn2)cn1
concentration at 3 h / µM: 14.2

====

test: Clearance in rat at 1 mg/kg, iv and 2 mg/kg, po; assay type: ADME, organism-based; details: in vivo
Listed compounds paired with reported clearance

chemicalSmiles: CC(C)(O)c1ccc(-c2nc(-c3ccc(F)cc3)oc2Sc2ccc(Cl)cn2)cn1
clearance, mL/min/kg: 20

chemicalSmiles: Clc1ccc(Sc2cn(-c3cccnc3)nc2-c2ccc(-c3ncon3)cc2)cc1
clearance, mL/min/kg: 34

====

assay: Fraction unbound in dog plasma; format: ADME, cell-free, Canis lupus familiaris
valueKind: fraction unbound

chemicalSmiles: CC(C)(O)c1ccc(-c2nc(-c3ccc(F)cc3)oc2Sc2ccc(Cl)cn2)cn1
recordedValue: 0.012

====

assay: Bioavailability in rat at 1 mg/kg, iv and 2 mg/kg, po; type: ADME, organism-based; conditions: in vivo

chemicalSmiles: Clc1ccc(Sc2cn(-c3cccnc3)nc2-c2ccc(-c3ncon3)cc2)cc1
unitsText: %
bioavailability: 35

chemicalSmiles: CC(C)(O)c1ccc(-c2nc(-c3ccc(F)cc3)oc2Sc2ccc(Cl)cn2)cn1
unitsText: %
bioavailability: 120

====

experiment: Fraction unbound in rat plasma; format: ADME, cell-free

chemicalSmiles: CC(C)(O)c1ccc(-c2nc(-c3ccc(F)cc3)oc2Sc2ccc(Cl)cn2)cn1
fraction unbound: 0.029

====

assay: Plasma concentration in Sprague-Dawley rat at 30 mg/kg/day, po measured after 24 hrs on day 5; assay type: ADME, organism-based; parameters: route oral

chemicalSmiles: CC(C)(O)c1ccc(-c2nc(-c3ccc(F)cc3)oc2Sc2ccc(Cl)cn2)cn1
unitsText: µM
concentration at 24 h: 6.5

====

assay: Plasma concentration in Sprague-Dawley rat at 30 mg/kg/day, po measured after 3 hrs on day 9; assay type: ADME, organism-based; design: route oral

chemicalSmiles: CC(C)(O)c1ccc(-c2nc(-c3ccc(F)cc3)oc2Sc2ccc(Cl)cn2)cn1
unitsText: µM
concentration at 3 h: 13.7

====

assay: Plasma concentration in Sprague-Dawley rat at 30 mg/kg/day, po measured after 24 hrs on day 8; assay type: ADME, organism-based; set-up: route oral
valueKind: concentration at 24 h (µM)

chemicalSmiles: CC(C)(O)c1ccc(-c2nc(-c3ccc(F)cc3)oc2Sc2ccc(Cl)cn2)cn1
recordedValue: 7.3

====

Each record here notes measured half-life.
assay: Half life in rat at 1 mg/kg, iv and 1 to 2 mg/kg, po; assay type: ADME, organism-based; conditions: in vivo

chemicalSmiles: CC(C)(O)c1cnc(-c2nn(-c3ccc(F)cc3)cc2Sc2ccc(Cl)cc2)cn1
half-life / h: 4.9
--
chemicalSmiles: CS(=O)(=O)c1ccc(-c2nn(-c3ccc(F)cc3)cc2Sc2ccc(Cl)cc2)cc1
half-life / h: 1.79

====

assay: Plasma concentration in Sprague-Dawley rat at 30 mg/kg/day, po measured after 24 hrs on day 10; type: ADME, organism-based; design: route oral

chemicalSmiles: CC(C)(O)c1ccc(-c2nc(-c3ccc(F)cc3)oc2Sc2ccc(Cl)cn2)cn1
unitsText: µM
concentration at 24 h: 7.9

====

Form field: IC50 (one value per entry).
biological target: UniProt:O00519; test: Inhibition of human FAAH lysate using AMCAA as substrate by fluorescence assay
Sequence (O00519 whole entry): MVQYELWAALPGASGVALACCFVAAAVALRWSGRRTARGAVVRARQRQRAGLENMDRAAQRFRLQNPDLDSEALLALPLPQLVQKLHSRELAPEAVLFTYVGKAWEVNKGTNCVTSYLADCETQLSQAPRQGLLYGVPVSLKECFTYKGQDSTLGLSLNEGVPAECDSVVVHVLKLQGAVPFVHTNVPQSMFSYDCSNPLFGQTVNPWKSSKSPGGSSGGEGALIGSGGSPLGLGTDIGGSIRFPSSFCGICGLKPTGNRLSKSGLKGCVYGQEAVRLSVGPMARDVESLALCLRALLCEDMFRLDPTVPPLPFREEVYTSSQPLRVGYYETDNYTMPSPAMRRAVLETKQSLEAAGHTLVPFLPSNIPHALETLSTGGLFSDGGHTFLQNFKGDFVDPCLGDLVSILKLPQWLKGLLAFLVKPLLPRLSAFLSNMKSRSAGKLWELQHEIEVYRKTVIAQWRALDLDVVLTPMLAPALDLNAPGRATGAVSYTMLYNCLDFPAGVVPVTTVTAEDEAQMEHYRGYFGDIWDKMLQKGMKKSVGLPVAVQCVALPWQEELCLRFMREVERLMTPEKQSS

chemicalSmiles: Clc1ccc(Sc2c[nH]nc2-c2ccc3c(c2)OCCO3)cc1
IC50 / nM: 119

chemicalSmiles: Clc1ccc(Sc2cn(-c3ccccc3)nc2-c2ccc3c(c2)OCCO3)cc1
IC50 / nM: 27

chemicalSmiles: CC(C)(O)c1cnc(-c2nn(-c3ccc(F)cc3)cc2Sc2ccc(Cl)cc2)cn1
IC50 / nM: 32

chemicalSmiles: Clc1ccc(Sc2cn(-c3cccnc3)nc2-c2ccc(-c3ncon3)cc2)cc1
IC50 / nM: 13

chemicalSmiles: CC(C)(O)c1ccc(-c2nc(-c3ccc(F)cc3)oc2Sc2ccc(Cl)cn2)cn1
IC50 / nM: 11

chemicalSmiles: CS(=O)(=O)c1ccc(-c2nc(-c3ccccc3)oc2Sc2ccc(Cl)cc2)cc1
IC50 / nM: 13

====

assay: Plasma concentration in Sprague-Dawley rat at 30 mg/kg/day, po measured after 24 hrs on day 2; assay type: ADME, organism-based; set-up: route oral
valueKind: concentration at 24 h (nM)

chemicalSmiles: CC(C)(O)c1ccc(-c2nc(-c3ccc(F)cc3)oc2Sc2ccc(Cl)cn2)cn1
recordedValue: 2100

====

experiment: Plasma concentration in Sprague-Dawley rat at 30 mg/kg/day, po measured after 24 hrs on day 9; type: ADME, organism-based; set-up: route oral
valueKind: concentration at 24 h (µM)

chemicalSmiles: CC(C)(O)c1ccc(-c2nc(-c3ccc(F)cc3)oc2Sc2ccc(Cl)cn2)cn1
recordedValue: 8.3

====

experiment: Plasma concentration in Sprague-Dawley rat at 30 mg/kg/day, po measured after 3 hrs on day 5; type: ADME, organism-based; parameters: route oral
valueKind: concentration at 3 h (µM)

chemicalSmiles: CC(C)(O)c1ccc(-c2nc(-c3ccc(F)cc3)oc2Sc2ccc(Cl)cn2)cn1
valueKind: concentration at 3 h
unitsText: µM
recordedValue: 13.2

====

experiment: Fraction unbound in rhesus monkey plasma; format: ADME, cell-free, Macaca mulatta

chemicalSmiles: CC(C)(O)c1ccc(-c2nc(-c3ccc(F)cc3)oc2Sc2ccc(Cl)cn2)cn1
fraction unbound: 0.008

====

Molecular target: Fatty-acid amide hydrolase 1 (Rattus norvegicus, UniProt P97612)
Sequence (P97612 whole entry): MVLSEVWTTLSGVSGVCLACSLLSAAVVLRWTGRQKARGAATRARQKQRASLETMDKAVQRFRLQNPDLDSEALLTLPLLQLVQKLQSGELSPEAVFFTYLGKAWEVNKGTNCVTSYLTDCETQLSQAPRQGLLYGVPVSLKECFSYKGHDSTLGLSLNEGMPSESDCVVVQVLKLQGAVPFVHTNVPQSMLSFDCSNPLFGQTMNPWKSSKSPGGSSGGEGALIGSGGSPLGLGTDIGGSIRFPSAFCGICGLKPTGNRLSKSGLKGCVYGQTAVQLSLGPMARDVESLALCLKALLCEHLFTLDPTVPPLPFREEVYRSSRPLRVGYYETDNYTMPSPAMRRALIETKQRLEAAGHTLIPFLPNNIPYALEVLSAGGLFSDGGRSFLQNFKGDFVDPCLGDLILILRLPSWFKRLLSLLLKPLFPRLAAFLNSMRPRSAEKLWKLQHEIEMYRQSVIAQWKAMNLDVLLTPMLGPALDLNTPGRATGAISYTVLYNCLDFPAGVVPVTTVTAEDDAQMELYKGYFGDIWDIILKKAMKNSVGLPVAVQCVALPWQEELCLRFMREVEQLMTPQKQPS
Assay: Inhibition of rat FAAH lysate using AMCAA as substrate by fluorescence assay
Listing of entries alongside the reported log10(IC50).
valueKind: log10(IC50) (log10 of the value in nM)

chemicalSmiles: CS(=O)(=O)c1ccc(-c2nn(-c3ccc(F)cc3)cc2Sc2ccc(Cl)cc2)cc1
recordedValue: 0.78
//
chemicalSmiles: CS(=O)(=O)c1ccc(-c2nc(-c3ccc(F)cc3)oc2Sc2ccc(Cl)cn2)cc1
recordedValue: 1.32
//
chemicalSmiles: CS(=O)(=O)c1ccc(-c2nc(-c3ccccc3)oc2Sc2ccc(Cl)cc2)cc1
recordedValue: 0.78
//
chemicalSmiles: Clc1ccc(Sc2c[nH]nc2-c2ccc3c(c2)OCCO3)cc1
recordedValue: 2.10
//
chemicalSmiles: CC(C)(O)c1ccc(-c2nc(-c3ccc(F)cc3)oc2Sc2ccc(Cl)cn2)cn1
recordedValue: 1.04
//
chemicalSmiles: Clc1ccc(Sc2cn(-c3ccccc3)nc2-c2ccc3c(c2)OCCO3)cc1
recordedValue: 0.90
//
chemicalSmiles: Clc1ccc(Sc2cn(-c3cccnc3)nc2-c2ccc(-c3ncon3)cc2)cc1
recordedValue: 0.68
//
chemicalSmiles: CC(C)(O)c1cnc(-c2nn(-c3ccc(F)cc3)cc2Sc2ccc(Cl)cc2)cn1
recordedValue: 1.00

====

experiment: Inhibition of human vesicular monoamine transporter
Measured EC50 accompanies every entry in the list below.

chemicalSmiles: CS(=O)(=O)c1ccc(-c2nc(-c3ccc(F)cc3)oc2Sc2ccc(Cl)cn2)cc1
qual: =
EC50, nM: 14000
//
chemicalSmiles: CC(C)(O)c1ccc(-c2nc(-c3ccc(F)cc3)oc2Sc2ccc(Cl)cn2)cn1
qual: >
EC50, nM: 20000
//
chemicalSmiles: Clc1ccc(Sc2cn(-c3cccnc3)nc2-c2ccc(-c3ncon3)cc2)cc1
qual: =
EC50, nM: 137
//
chemicalSmiles: CC(C)(O)c1cnc(-c2nn(-c3ccc(F)cc3)cc2Sc2ccc(Cl)cc2)cn1
qual: =
EC50, nM: 1160
//
chemicalSmiles: CS(=O)(=O)c1ccc(-c2nn(-c3ccc(F)cc3)cc2Sc2ccc(Cl)cc2)cc1
qual: =
EC50, nM: 363
